PROTOCOL_SUMMARY: melting temperature; fluorescence melt of hairpins on a sequencing array, two-state fit, raised by 9.35 °C to match UV melts
SETTINGS: sodium 0.088 M
// classify: if (Tm < 50 °C) Met else Not met

| SEQUENCE_DATA | LABEL_VALUE |
| --- | --- |
| GCGTGGCGAAAGCTGCGC (((..((....))..))) | Not met |
| GTATATACGAAAGTATAC (((..(((....)))))) | Met |
| GGTTTACCGAAAGGTACC (((..(((....)))))) | Met |
| GGGCACGAAAGTGACCCC ((((((....)))..))) | Not met |
| GGCAACGGAAACGTTACC ((.((((....)))).)) | Met |
| GTTTACGGAAACGCAAAC ((((.((....)).)))) | Met |
| GGGTATCCGAAAGGACCC (((..(((....)))))) | Met |

Each recorded value in this set is attributed to the array DNA melting data of Ke et al. (doi:10.1101/2024.01.08.574731).
